Hi there, I'd appreciate the recorded IC50 for every entry that follows.
test system: HCE-4; test: cells; assay type: functional, cell-based, Homo sapiens; conditions: Homo sapiens, HCE-4;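 also: cell viability assay measuring inhibition of growth in the human HCE-4 cell line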
Description: SANGER: Inhibition of human HCE-4 cell growth in a cell viability assay.

molecule	IC50
CO[C@H]1C[C@@H]2CC[C@@H](C)[C@@](O)(O2)C(=O)C(=O)N2CCCC[C@H]2C(=O)O[C@H]([C@H](C)C[C@@H]2CC[C@@H](O)[C@H](OC)C2)CC(=O)[C@H](C)/C=C(\C)[C@@H](O)[C@@H](OC)C(=O)[C@H](C)C[C@H](C)/C=C/C=C/C=C/1C [SIROLIMUS]	> 100 nM

Please go through the list and note IC50 for each molecule.
1. Cc1ccc(Nc2nccc(N(C)c3ccc4c(C)n(C)nc4c3)n2)cc1S(N)(=O)=O [PAZOPANIB]
2. COc1ccc(-c2ccc3c(N4CCOC[C@@H]4C)nc(N4CCOC[C@@H]4C)nc3n2)cc1CO [AZD-8055]
3. CN(c1ncccc1CNc1nc(Nc2ccc3c(c2)CC(=O)N3)ncc1C(F)(F)F)S(C)(=O)=O [PF-00562271]
4. O=C(NOCC1CC1)c1ccc(F)c(F)c1Nc1ccc(I)cc1Cl [CI-1040]
5. C=CCNC1=C2C[C@@H](C)C[C@H](OC)[C@H](O)[C@@H](C)/C=C(\C)[C@H](OC(N)=O)[C@@H](OC)/C=C\C=C(/C)C(=O)NC(=CC1=O)C2=O [TANESPIMYCIN]
6. COC(=O)CNC(=O)C(=O)OC

Result string:
1. > 8000 nM
2. > 2000 nM
3. > 2560 nM
4. > 10000 nM
5. 474 nM
6. 546000 nM

Please go through the list and note IC50 for each molecule.
1. O=c1cc(-c2cccc3c2Sc2ccccc2S3)oc(N2CCOCC2)c1 [KU-55933]
2. CCC(=O)N1CCN(c2ccc(-n3c(=O)ccc4cnc5ccc(-c6cnc7ccccc7c6)cc5c43)cc2C(F)(F)F)CC1 [TORIN1]

Result string:
1. > 10000 nM
2. 38.6 nM

###

test system: COLO-800; assay: cells; type: functional, cell-based, Homo sapiens; details: Homo sapiens, COLO-800;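 also: growth inhibition of COLO-800 cells, read out with a cell viability assay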
Description: SANGER: Inhibition of human COLO-800 cell growth in a cell viability assay.
attribute measured: IC50

Some entries whose results are on file:
molecule	test system	test result
COc1ccc(C2=N[C@@H](c3ccc(Cl)cc3)[C@@H](c3ccc(Cl)cc3)N2C(=O)N2CCNC(=O)C2)c(OC(C)C)c1 [NUTLIN-3]	COLO-800	> 8 µM
COc1cc([C@@H]2c3cc4c(cc3[C@@H](O[C@@H]3O[C@@H]5CO[C@@H](C)O[C@H]5[C@H](O)[C@H]3O)[C@H]3COC(=O)[C@H]23)OCO4)cc(OC)c1O [ETOPOSIDE]	COLO-800	2.1 µM
O=C(/C=C/c1ccccc1)NC(NC(=S)Nc1cccc2cccnc12)C(Cl)(Cl)Cl (configuration not stated) [SALUBRINAL]	COLO-800	> 16 µM

Please go through the list and note IC50 for each molecule.
1. CN(c1ncccc1CNc1nc(Nc2ccc3c(c2)CC(=O)N3)ncc1C(F)(F)F)S(C)(=O)=O [PF-00562271]
2. CC(=O)O[C@@]12CO[C@@H]1C[C@H](O)[C@@]1(C)C(=O)[C@H](O)C3=C(C)[C@@H](OC(=O)[C@H](O)[C@@H](NC(=O)OC(C)(C)C)c4ccccc4)C[C@@](O)([C@@H](OC(=O)c4ccccc4)[C@H]21)C3(C)C [DOCETAXEL]
3. CS(=O)(=O)CCNCc1ccc(-c2ccc3ncnc(Nc4ccc(OCc5cccc(F)c5)c(Cl)c4)c3c2)o1 [LAPATINIB]

Result string:
1: > 2.56 µM; 2: 0.000388 µM; 3: > 2 µM

Query string: Give the observed IC50 of CC1=C2C[C@H]3[C@@H](CC=C4C[C@@H](O)CC[C@@]43C)[C@@H]2CC[C@]12O[C@@H]1C[C@H](C)CN[C@H]1[C@H]2C [CYCLOPAMINE] for COLO-800.
Result string: > 16 µM

###

Hi there, I'd appreciate the recorded IC50 for every entry that follows.
system: EKVX; assay: cells; assay type: functional, cell-based, Homo sapiens; conditions: Homo sapiens, EKVX
Description: SANGER: Inhibition of human EKVX cell growth in a cell viability assay.

Some entries whose results are on file:
> print(dat)
                              sample.smiles  attribute.measured  test.result
1   O=C1N=C(NCc2cccs2)S/C1=C\c1ccc2ncccc2c1                IC50       > 5 µM
2                     COC(=O)CNC(=O)C(=O)OC                IC50       513 µM
3  Cn1cncc1[C@@](N)(c1ccc(Cl)cc1)c1ccc2c(c1)c(-c1cccc(Cl)c1)cc(=O)n2C                IC50      > 16 µM
4  C[C@]1(O)C[C@@H](c2nc(-c3ccc4ccc(-c5ccccc5)nc4c3)c3c(N)nccn32)C1                IC50      1.35 µM
5  O=C(NOCC1CC1)c1ccc(F)c(F)c1Nc1ccc(I)cc1Cl                IC50      > 10 µM
6  CN(C)C/C=C/C(=O)Nc1cc2c(Nc3ccc(F)c(Cl)c3)ncnc2cc1O[C@H]1CCOC1                IC50     > 0.5 µM

Moving on to the next molecule.
Query string: Query IC50 for O=c1cc(-c2cccc3c2Sc2ccccc2S3)oc(N2CCOCC2)c1
Result string: > 10 µM

###

system: KP-N-YN; experiment: cells; assay type: functional, cell-based; conditions: Homo sapiens
Description: SANGER: Inhibition of human KP-N-YN cell growth in a cell viability assay.
pIC50: −log10 of the molar value.
Hi there, I'd appreciate the recorded pIC50 for every entry that follows.

Some entries whose results are on file:
compound	test system	pIC50
Cn1cncc1[C@@](N)(c1ccc(Cl)cc1)c1ccc2c(c1)c(-c1cccc(Cl)c1)cc(=O)n2C [TIPIFARNIB]	KP-N-YN	< 4.80
Cc1cc([C@@H](C)Nc2ccccc2C(=O)O)c2nc(N3CCOCC3)cc(=O)n2c1 [AZD-6482]	KP-N-YN	< 5.29
CCOc1nc(NC(=O)Cc2cc(OC)ccc2OC)cc(N)c1C#N	KP-N-YN	< 5.00
C=CCNC1=C2C[C@@H](C)C[C@H](OC)[C@H](O)[C@@H](C)/C=C(\C)[C@H](OC(N)=O)[C@@H](OC)/C=C\C=C(/C)C(=O)NC(=CC1=O)C2=O [TANESPIMYCIN]	KP-N-YN	< 6.00
Cc1ccc(Nc2nccc(N(C)c3ccc4c(C)n(C)nc4c3)n2)cc1S(N)(=O)=O [PAZOPANIB]	KP-N-YN	< 5.10
CN(Cc1cnc2nc(N)nc(N)c2n1)c1ccc(C(=O)N[C@@H](CCC(=O)O)C(=O)O)cc1 [METHOTREXATE]	KP-N-YN	< 6.70
O=c1cc(-c2cccc3c2Sc2ccccc2S3)oc(N2CCOCC2)c1 [KU-55933]	KP-N-YN	< 5.00

Moving on to the next compound.
Query string: Give the observed pIC50 of O=C(c1cc(Cc2n[nH]c(=O)c3ccccc23)ccc1F)N1CCN(C(=O)C2CC2)CC1 [OLAPARIB] for KP-N-YN.
Result string: < 5.30

###

tested on: Becker; test: cells; type: functional, cell-based, Homo sapiens; details: Homo sapiens, Becker
Description: SANGER: Inhibition of human Becker cell growth in a cell viability assay.
pIC50: −log10 of the molar value.
attribute measured: pIC50

Some entries whose results are on file:
molecule	test system	pIC50
O=c1cc(-c2cccc3c2Sc2ccccc2S3)oc(N2CCOCC2)c1 [KU-55933]	Becker	< 5.00
Cc1cnc(-c2cnc(NCCNc3ccc(C#N)cn3)nc2-c2ccc(Cl)cc2Cl)[nH]1 [LADUVIGLUSIB]	Becker	< 5.59
CO[C@H]1C[C@@H]2CC[C@@H](C)[C@@](O)(O2)C(=O)C(=O)N2CCCC[C@H]2C(=O)O[C@H]([C@H](C)C[C@@H]2CC[C@@H](O)[C@H](OC)C2)CC(=O)[C@H](C)/C=C(\C)[C@@H](O)[C@@H](OC)C(=O)[C@H](C)C[C@H](C)/C=C/C=C/C=C/1C [SIROLIMUS]	Becker	7.39
COc1ccc(C2=N[C@@H](c3ccc(Cl)cc3)[C@@H](c3ccc(Cl)cc3)N2C(=O)N2CCNC(=O)C2)c(OC(C)C)c1 [NUTLIN-3]	Becker	< 5.10
CN(c1ncccc1CNc1nc(Nc2ccc3c(c2)CC(=O)N3)ncc1C(F)(F)F)S(C)(=O)=O [PF-00562271]	Becker	< 5.59

Query string: Query pIC50 for CCc1nc(N)nc(N)c1-c1ccc(Cl)cc1 [PYRIMETHAMINE]
Result string: < 4.70

###

tested on: OVCAR-8; experiment: cells; format: functional, cell-based, Homo sapiens; details: Homo sapiens, OVCAR-8;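 also: growth inhibition of human OVCAR-8 cells, read out by a cell viability assay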
Description: SANGER: Inhibition of human OVCAR-8 cell growth in a cell viability assay.
attribute measured: IC50

Please go through the list and note IC50 for each compound.
1. CN(Cc1cnc2nc(N)nc(N)c2n1)c1ccc(C(=O)N[C@@H](CCC(=O)O)C(=O)O)cc1 [METHOTREXATE]
2. O=c1cc(-c2cccc3c2Sc2ccccc2S3)oc(N2CCOCC2)c1 [KU-55933]
3. O=C(c1cc(Cc2n[nH]c(=O)c3ccccc23)ccc1F)N1CCN(C(=O)C2CC2)CC1 [OLAPARIB]
4. CC(=O)O[C@@H]1[C@@H](OC(C)=O)[C@@H](O)[C@H](Oc2c(-c3ccc(O)cc3)oc3cc(O)cc(O)c3c2=O)O[C@H]1C
5. CCOc1nc(NC(=O)Cc2cc(OC)ccc2OC)cc(N)c1C#N
6. Cn1cncc1[C@@](N)(c1ccc(Cl)cc1)c1ccc2c(c1)c(-c1cccc(Cl)c1)cc(=O)n2C [TIPIFARNIB]
7. CN(C)C/C=C/C(=O)Nc1cc2c(Nc3ccc(F)c(Cl)c3)ncnc2cc1O[C@H]1CCOC1 [AFATINIB]

Result string:
> 0.2 µM
> 10 µM
> 5 µM
> 10 µM
> 10 µM
4.45 µM
> 0.5 µM

The origin of these recorded values is ChEMBL document CHEMBL1201861.
